Molecular target: UP1 Q12A/G147A (human, UniProt P09651 1-196, Q12A;G147A)
Sequence (P09651 1-196 Q12A/G147A): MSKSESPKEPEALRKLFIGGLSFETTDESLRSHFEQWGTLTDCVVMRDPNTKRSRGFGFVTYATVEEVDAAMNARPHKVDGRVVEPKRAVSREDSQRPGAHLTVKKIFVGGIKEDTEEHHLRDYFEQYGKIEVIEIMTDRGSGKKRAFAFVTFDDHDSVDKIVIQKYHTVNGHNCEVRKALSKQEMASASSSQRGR
Test: ITC; ITC: 20 mM Tris-HCl pH 7.5, 150 mM NaCl, 20 C; protein 160 uM in syringe, RNA 10 uM in cell
Conditions: protein: recombinant; tags: C-terminal His6; single strand
Property: pKd
Scale for pKd: -log10 of concentration given in mol/L; no unit attached.

Tell me its pKd given TTAGGGTTAGGG (ssDNA) [Telo DNA (TTAGGG)2] as the entry.
6.68
